targetSystem: T1, EsCas13d, nuclease-dead (Eubacterium siraeum, UniProt B0MS50, R295A;H300A;R849A;H854A)
T1 sequence: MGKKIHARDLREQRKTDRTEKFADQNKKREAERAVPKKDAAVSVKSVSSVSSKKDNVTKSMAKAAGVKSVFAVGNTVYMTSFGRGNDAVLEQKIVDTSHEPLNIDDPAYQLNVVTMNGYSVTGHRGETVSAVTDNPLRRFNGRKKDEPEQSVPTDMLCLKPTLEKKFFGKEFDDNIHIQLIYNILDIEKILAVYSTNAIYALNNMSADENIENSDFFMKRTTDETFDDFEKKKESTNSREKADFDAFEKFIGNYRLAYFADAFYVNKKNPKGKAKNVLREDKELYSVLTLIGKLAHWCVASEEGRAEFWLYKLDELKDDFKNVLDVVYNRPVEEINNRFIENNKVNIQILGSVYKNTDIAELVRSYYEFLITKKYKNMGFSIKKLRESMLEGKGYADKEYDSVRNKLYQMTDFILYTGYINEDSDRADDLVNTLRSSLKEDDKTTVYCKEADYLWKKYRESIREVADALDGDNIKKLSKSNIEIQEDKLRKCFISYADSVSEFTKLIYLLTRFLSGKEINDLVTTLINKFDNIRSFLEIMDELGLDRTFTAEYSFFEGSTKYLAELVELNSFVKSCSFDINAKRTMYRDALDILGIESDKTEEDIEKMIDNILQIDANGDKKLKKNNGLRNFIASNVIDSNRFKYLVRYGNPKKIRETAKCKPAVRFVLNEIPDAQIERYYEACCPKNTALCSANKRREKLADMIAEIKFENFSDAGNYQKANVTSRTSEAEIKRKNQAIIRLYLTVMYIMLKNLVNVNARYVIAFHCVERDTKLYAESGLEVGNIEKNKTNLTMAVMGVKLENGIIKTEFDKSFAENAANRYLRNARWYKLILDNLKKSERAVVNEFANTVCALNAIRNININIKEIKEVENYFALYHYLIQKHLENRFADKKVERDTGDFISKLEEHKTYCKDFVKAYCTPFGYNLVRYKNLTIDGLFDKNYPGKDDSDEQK
testDetails: crRNA (strand 1, pre-loaded); Mg2+; 40 mM Tris-HCl pH 7.5, 150 mM NaCl, 6 mM MgCl2, 1 mM DTT, 0.1% Tween-20, 0.2 mg/ml BSA; 25 C; 10 min per concentration, then washed
statedConditions: tags: His6-TwinStrep-SUMO cleaved; N-terminal SNAP kept (SNAP-Surface 488); label: 3' end held by stalled T7 RNA polymerase
measuredParameter: pKd
Give bare numbers, as −log10 of the molar value.

Take a look at these entries with their results.
target 1 MT 5'PFS GUU 3'PFS UAC (mixed) RNA 1: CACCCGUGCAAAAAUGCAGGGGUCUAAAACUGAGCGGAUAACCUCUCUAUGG RNA 2: GGGAAUGGAUCCACAUCUACGAAUUCGUUCCAUAGAGAGGUUAUCCGCUCAUACAGAUCGGAAGAGCACACGU = 7.84
target 1 insC 3' of 8,insA 3' of 4 (mixed) RNA 1: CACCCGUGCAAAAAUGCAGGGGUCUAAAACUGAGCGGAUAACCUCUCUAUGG RNA 2: GGGAAUGGAUCCACAUCUACGAAUUCGUACCAUAGAGAGGUUAUCCCGCAUCACCGAGAUCGGAAGAGCACACGU = 7.92
target 1 insA 3' of 15,insA 3' of 7 (mixed) RNA 1: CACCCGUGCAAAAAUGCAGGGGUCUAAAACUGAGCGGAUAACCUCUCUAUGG RNA 2: GGGAAUGGAUCCACAUCUACGAAUUCGUACCAUAGAGAAGGUUAUCACGCUCACCGAGAUCGGAAGAGCACACGU = 8.33
target 1 G13A,G15A (mixed) RNA 1: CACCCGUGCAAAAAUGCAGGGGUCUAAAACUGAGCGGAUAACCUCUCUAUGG RNA 2: GGGAAUGGAUCCACAUCUACGAAUUCGUACCAUAGAAAAGUUAUCCGCUCACCGAGAUCGGAAGAGCACACGU = 7.99
target 1 C6U,C21U (mixed) RNA 1: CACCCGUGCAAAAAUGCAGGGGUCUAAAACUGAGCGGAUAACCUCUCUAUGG RNA 2: GGGAAUGGAUCCACAUCUACGAAUUCGUACUAUAGAGAGGUUAUCUGCUCACCGAGAUCGGAAGAGCACACGU = 8.21
target 2 MT 5'PFS GCU 3'PFS AGG (mixed) RNA 1: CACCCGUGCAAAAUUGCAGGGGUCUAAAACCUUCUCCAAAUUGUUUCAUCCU RNA 2: GGGAAUGGAUCCACAUCUACGAAUUCGCUAGGAUGAAACAAUUUGGAGAAGAGGAGAUCGGAAGAGCACACGU = 8.10
target 1 C6A,U10G (mixed) RNA 1: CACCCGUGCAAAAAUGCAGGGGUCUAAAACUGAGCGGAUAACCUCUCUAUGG RNA 2: GGGAAUGGAUCCACAUCUACGAAUUCGUACCAUAGAGAGGUGAUCAGCUCACCGAGAUCGGAAGAGCACACGU = 7.86

**Q:** Quick one: pKd of target 1 MT 5'PFS AAA 3'PFS ACA (mixed) RNA 1: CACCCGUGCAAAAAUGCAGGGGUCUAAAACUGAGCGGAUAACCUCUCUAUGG RNA 2: GGGAAUGGAUCCACAUCUACGAAUUCAAACCAUAGAGAGGUUAUCCGCUCAACAAGAUCGGAAGAGCACACGU ?
**A:** 7.53
